Molecular target: T1, recombinant human PD-1 Fc chimera (human, UniProt Q15116 25-167)
T1 construct: Bought protein (R&D 1086-PD in the HTRF assay); also called human PD-1-hu Fc; huPD-1Fc; not shown: human Fc
T1 sequence (Q15116 25-167 limits assumed, change not shown): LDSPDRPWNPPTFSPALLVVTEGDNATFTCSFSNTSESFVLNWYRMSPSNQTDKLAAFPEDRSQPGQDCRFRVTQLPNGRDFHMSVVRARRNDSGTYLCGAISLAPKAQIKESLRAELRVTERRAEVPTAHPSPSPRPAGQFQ
Assay: SPR Biacore T200, single cycle kinetics, human PD-1-hu Fc amine coupled to CM5, 1:1 model
MEASUREMENT LABEL: Kd
Quick note: number first, unit second.

Lookup result for 1.57b (VHH) VHH: QVQLVESGGGLVKPGGSLRLSCAASGFTFSDNSMTWMRQAPGKGLEWVSYISSGGGVIFYADSVKGRFTISRDNAKNSLYLQMNSLRADDTAVYYCAREAPLRLGESPHDAFDISGQGTMVTVSS ; measured Kd: 0.124 pM
